Please respond with reported pKd for every item in the list.
Molecular target: T1, EsCas13d, nuclease-dead (Eubacterium siraeum, UniProt B0MS50, R295A;H300A;R849A;H854A)
T1 sequence: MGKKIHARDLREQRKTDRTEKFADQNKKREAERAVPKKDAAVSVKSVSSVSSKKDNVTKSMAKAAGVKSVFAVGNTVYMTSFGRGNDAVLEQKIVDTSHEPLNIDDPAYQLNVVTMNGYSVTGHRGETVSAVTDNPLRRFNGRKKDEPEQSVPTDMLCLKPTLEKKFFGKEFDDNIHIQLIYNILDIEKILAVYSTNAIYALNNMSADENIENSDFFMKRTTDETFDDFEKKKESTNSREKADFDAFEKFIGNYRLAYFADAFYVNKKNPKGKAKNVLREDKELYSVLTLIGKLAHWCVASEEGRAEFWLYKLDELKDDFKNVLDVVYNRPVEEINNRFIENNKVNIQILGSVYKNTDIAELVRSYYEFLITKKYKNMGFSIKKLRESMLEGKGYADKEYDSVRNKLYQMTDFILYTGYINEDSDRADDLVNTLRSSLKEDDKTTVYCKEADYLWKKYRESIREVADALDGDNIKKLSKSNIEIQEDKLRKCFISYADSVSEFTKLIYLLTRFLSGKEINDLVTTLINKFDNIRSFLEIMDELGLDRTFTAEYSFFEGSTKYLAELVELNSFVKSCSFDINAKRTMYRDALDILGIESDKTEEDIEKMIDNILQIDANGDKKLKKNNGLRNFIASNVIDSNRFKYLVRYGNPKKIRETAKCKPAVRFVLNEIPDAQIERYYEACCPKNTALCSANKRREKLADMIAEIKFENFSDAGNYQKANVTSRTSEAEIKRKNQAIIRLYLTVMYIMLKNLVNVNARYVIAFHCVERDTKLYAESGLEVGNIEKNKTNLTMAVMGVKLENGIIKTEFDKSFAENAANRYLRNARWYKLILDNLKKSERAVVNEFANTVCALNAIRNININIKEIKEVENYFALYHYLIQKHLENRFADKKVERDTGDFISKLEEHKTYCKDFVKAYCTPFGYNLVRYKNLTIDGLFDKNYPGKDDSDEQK
Assay: crRNA (strand 1, pre-loaded); Mg2+; 40 mM Tris-HCl pH 7.5, 150 mM NaCl, 6 mM MgCl2, 1 mM DTT, 0.1% Tween-20, 0.2 mg/ml BSA; 25 C; 10 min per concentration, then washed
Settings: tags: His6-TwinStrep-SUMO cleaved; N-terminal SNAP kept (SNAP-Surface 488); label: 3' end held by stalled T7 RNA polymerase
Scale for pKd: -log10 of concentration given in mol/L; no unit attached.

q: Which pKd value belongs to target 3 insG 3' of 7,insU 3' of 5 (mixed) RNA 1: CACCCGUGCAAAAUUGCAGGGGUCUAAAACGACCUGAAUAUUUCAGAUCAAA RNA 2: GGGAAUGGAUCCACAUCUACGAAUUCGUUUUUGAUCUGAAAUAUUGCAUGGUCUGCAGAUCGGAAGAGCACACGU ?
a: 7.70

q: Which pKd value belongs to target 1 insG 3' of 6,insG 3' of 2 (mixed) RNA 1: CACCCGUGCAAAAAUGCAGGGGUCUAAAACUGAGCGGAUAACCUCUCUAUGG RNA 2: GGGAAUGGAUCCACAUCUACGAAUUCGUACCAUAGAGAGGUUAUCCGGCUCGACCGAGAUCGGAAGAGCACACGU ?
a: 7.98

q: Which pKd value belongs to target 1 insU 3' of 18 (mixed) RNA 1: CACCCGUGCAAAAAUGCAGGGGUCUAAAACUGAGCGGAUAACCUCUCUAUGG RNA 2: GGGAAUGGAUCCACAUCUACGAAUUCGUACCAUAUGAGAGGUUAUCCGCUCACCGAGAUCGGAAGAGCACACGU ?
a: 7.51

q: Which pKd value belongs to target 2 MT 5'PFS CUC 3'PFS AAC (mixed) RNA 1: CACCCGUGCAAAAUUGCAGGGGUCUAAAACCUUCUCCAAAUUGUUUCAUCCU RNA 2: GGGAAUGGAUCCACAUCUACGAAUUCCUCAGGAUGAAACAAUUUGGAGAAGAACAGAUCGGAAGAGCACACGU ?
a: 8.60
